Target: Vitamin D3 receptor (Sus scrofa) (UniProt A3RGC1)
Sequence (whole entry): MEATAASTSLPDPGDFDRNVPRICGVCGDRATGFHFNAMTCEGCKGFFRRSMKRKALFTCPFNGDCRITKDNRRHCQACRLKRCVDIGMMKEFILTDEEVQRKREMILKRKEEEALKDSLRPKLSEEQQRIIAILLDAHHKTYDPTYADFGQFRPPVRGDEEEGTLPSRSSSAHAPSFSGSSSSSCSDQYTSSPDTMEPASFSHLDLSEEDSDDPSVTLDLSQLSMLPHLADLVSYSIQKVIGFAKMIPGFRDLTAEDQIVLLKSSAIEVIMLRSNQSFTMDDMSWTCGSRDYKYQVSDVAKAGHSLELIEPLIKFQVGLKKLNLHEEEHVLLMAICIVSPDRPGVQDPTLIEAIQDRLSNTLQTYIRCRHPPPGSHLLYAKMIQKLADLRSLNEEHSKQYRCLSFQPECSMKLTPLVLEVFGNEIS
Test: Displacement of 50% binding of [3H]alpha,25 (OH)2D3 from pig intestinal mucosa Vitamin D3 receptor
Assay type: tissue-based
metric name: Relative affinity
One number for each entry.

// known answers, use as guide
molecule="CC(CCCC(O)(C(F)(F)F)C(F)(F)F)C[C@H](C)[C@@]1(C)CC[C@@H](/C=C/C=C2C[C@@H](O)C[C@H](O)C2)C1(C)C (stereo not given in full)" test_system="Vitamin D3 receptor (Sus scrofa) (UniProt A3RGC1)" metric_name="Relative affinity" observed=40
molecule="CC(CC#CC(O)(C(F)(F)F)C(F)(F)F)C[C@H](C)[C@@]1(C)CC[C@@H](/C=C/C=C2C[C@@H](O)C[C@H](O)C2)C1(C)C (stereo not given in full)" test_system="Vitamin D3 receptor (Sus scrofa) (UniProt A3RGC1)" metric_name="Relative affinity" observed=50
molecule="C=C1C(=CC=C[C@@H]2CC[C@](C)([C@@H](C)CC(C)CCCC(O)(C(F)(F)F)C(F)(F)F)C2(C)C)C[C@@H](O)C[C@@H]1O (stereo not given in full)" test_system="Vitamin D3 receptor (Sus scrofa) (UniProt A3RGC1)" metric_name="Relative affinity" observed=60
molecule=C=C1/C(=C\C=C2/CCC[C@]3(C)[C@@H]([C@H](C)CCCC(C)(C)O)CC[C@@H]23)C[C@@H](O)C[C@@H]1O test_system="Vitamin D3 receptor (Sus scrofa) (UniProt A3RGC1)" metric_name="Relative affinity" observed=100

Now consider a different molecule.
The value of Relative affinity measured for the molecule CC(CC#CC(C)(C)O)C[C@H](C)[C@@]1(C)CC[C@@H](/C=C/C=C2C[C@@H](O)C[C@H](O)C2)C1(C)C (stereo not given in full) turned out to be 40
